Tested on: Nan-Iav
Assay type: cell-based, Halyomorpha halys
recorded-conditions: read-out: apparent EC50
pEC50: −log10 of the molar value.
reported-property: pEC50

In plain terms, NC(=O)c1cccnc1 [NAM, nicotinamide] has a documented pEC50 of ~4.00
